Provenance of the data: PubChem BioAssay (NCI)

Consider the following molecules and their measured growth readings.
Tested on: MCF7 breast
procedure details: NCI-60 one-dose screen, 48 h (100 = growth as untreated, 0 = no growth, -100 = all killed)
test settings: 10 µM unless noted
The panel holds about 83,000 compounds, 20% with a hit somewhere; the sample as a whole holds those more often.
Value expressed in %; do not type the unit.

O=S(=O)(Cc1ccccc1)c1ccccc1: 99.5

Turning to the following molecule.
# get_value(readout= growth, system= MCF7 breast) for CC(=O)Nc1c(C)cc(C)cc1C 96.5

----------
Tested on: RPMI-8226 leukemia
procedure details: NCI-60 one-dose screen, 48 h (100 = growth as untreated, 0 = no growth, -100 = all killed)
test settings: 10 µM
Method: Growth inhibition of the RPMI-8226 human tumor cell line is measured as a screen for anti-cancer activity. Cells are grown in 96 well plates and exposed to the test compound for 48 hours. Compounds are tested at a single concentration, which is 10^-5 M for most compounds. The reported endpoint is percent growth (GI% or GIPRCNT), where numbers from 0 - 100% represent growth inhibition, and numbers from -100% - 0 represent cell death. For example, a value of 40 represents 60% growth inhibition. […]
Compounds without any hit were thinned out: in the full panel of roughly 83,000, 20% have a hit. Calls of active or inactive are those of the source. The calls were made as follows: active = growth percent below 10; inactive = the rest.
Recorded growth, one value per entry.

Here are 5 compounds together with their reported answers.
NC(=O)N/N=C\c1ccco1: 105% (inactive)
O=C(O)[C@@H]1[C@H]2C[C@H]3c4[nH]c5ccccc5c4CCN3C[C@@H]2CC[C@@H]1O: 111% (inactive)
C1CNC(C2=NCCN2)=N1: 109% (inactive)
CC(C)=NNc1ccc([N+](=O)[O-])cc1[N+](=O)[O-]: 68.2% (inactive)
O=c1cc(-c2ccccc2)nc2cc(-c3ccco3)[nH]n12: 71.6% (inactive)

# lookup: growth of N#CCCc1ccc(O)cc1 102% (inactive)

Record request: growth value, item Oc1ccccc1O 60.1% (inactive)

----------
Recorded growth for the following molecules
System: SR leukemia
procedure details: NCI-60 one-dose screen, 48 h (100 = growth as untreated, 0 = no growth, -100 = all killed)
test settings: 10 µM
The panel holds about 83,000 compounds, 20% with a hit somewhere; the sample as a whole holds those more often.
Supply the numeric figure in %, leaving out any unit text.

Below: 5 molecules and their reported growth.
Oc1ccccc1-c1nnco1: 90.4
O=C(O)CCC(NC(=O)OCc1ccccc1)C(=O)O (configuration not stated): 97.5
C=CC(=O)OCCCCCCCC: 82.6
O=C(N/N=C\c1cc(Br)cc(Br)c1O)N/N=C/c1cc(Br)cc(Br)c1O: -18.4
CC1(C(N)=O)CCC(C(=O)O)C1(C)C (configuration not stated): 111

For the molecule OCCN1CCOCC1 , what growth is on record? 104

May I ask what growth has been recorded for NC(=S)NN=C1CCCC1 ? 88

I am curious: what growth value has been reported for CCCCC1(CC)COC(CCC)OC1 (configuration not stated) ? 106

Returns the measured growth for the input molecule. Input: C#Cc1cccc(NC(=O)c2ccc(Cl)cc2Cl)c1 115

Which growth is listed for CCCNc1ccc(C2=NCCCN2)cc1 ? 96.9

Report growth for CCCCCCCO please. 91.5

Would you mind telling me what growth value was observed for CSC(=N\N=C\c1ccc(N(C)C)cc1)/N=C/N(C)C ? 99

Look up growth for this molecule: N#Cc1ccc(OC(=O)Nc2ccc(Cl)c(Cl)c2)cc1 39.4

Fill in: growth of CNS(=O)(=O)c1ccc(Cl)c(Cl)c1 is ___ 78.1

Fill in: growth of O=[N+]([O-])c1ccc(N=Nc2ccccc2)cc1 is ___ 97.9
